Experiment: Toxicity and clinical signs after escalating intravenous doses of CKLP1 in beagles
Format: in vivo, beagle dog
Conditions: both sexes, beagle, dog, in vivo; single escalating IV doses; read-out: maximum tolerated dose (MTD)
Procedure: Two beagles (one male and one female) were intravenously injected with escalating doses of CKPL1 (0.05 mg/kg, 0.5 mg/kg, 1.5 mg/kg, 3 mg/kg, and 5 mg/kg) to assess the toxicity of CKLP1. […] The following parameters and endpoints were evaluated: mortality, clinical observations, body and organ weights, and food consumption. […]
PARAMETER: MTD (mg/kg)

[[record]]
molecule = "CC1(C)Oc2ccc(C#N)cc2[C@@H](N2CCCC2=O)[C@@H]1OP(=O)(O)O [CKLP1]"
readout_value = 3

